Assignment: determine reported growth for the given molecules.
System: SF-539 CNS
measurement.protocol: NCI-60 one-dose screen, 48 h (100 = growth as untreated, 0 = no growth, -100 = all killed)
condition.description: 10 µM unless noted
Compounds without any hit were thinned out: in the full panel of roughly 83,000, 20% have a hit. The source made the active and inactive calls. How the source made its calls: active means growth percent below 10; inactive means the rest.

Recorded growth, per entry:
CCN(CC)CC#CCOC(=O)[C@]1(C)CCC[C@]2(C)[C@H]3C[C@H]4C(C(C)C)=C[C@]3(CC[C@H]21)[C@@H]1C(=O)CCC(=O)[C@@H]14	66.8% (inactive)
O=C(CN1N=C(c2ccc(F)cc2)CCC1=O)Nc1nccs1	98.1% (inactive)
Nc1c(C(=O)Nc2ccccc2)sc2nc3c(cc12)CN(C(=O)OCc1ccccc1)CC3	44.9% (inactive)

# per-item lookup of growth; items listed below
1. CCN1CCN(Cc2ccc(NC(=O)c3cccc(C#Cc4cccc5[nH]nc(N)c45)c3)cc2C(F)(F)F)CC1
2. C=C(C)[C@@H]1CC[C@]2(C(=O)n3ccnc3)CC[C@]3(C)[C@H](CC[C@@H]4[C@@]5(C)CCCNC(C)(C)[C@@H]5CC[C@]43C)[C@@H]12
3. CCc1ccc(OCc2ccccc2C(=O)Nc2ccc3nc(C)cc(N)c3c2)cc1
4. CC(C)NS(=O)(=O)c1cccc(-c2ccc3c(=O)n(CCCN)c4c(c3c2)C(=O)c2ccccc2-4)c1
5. O=C(O)C(C(=O)O)c1cccc2ccccc12

Reply:
["-98% (active)", "24.6% (inactive)", "-97.5% (active)", "104% (inactive)", "94.5% (inactive)"]

Per the record, CCCCN(CCCC)CC(CN(CC)CC)OC(=O)Nc1ccccc1 (centres undefined) has growth of 94.4% (inactive)
